Catalogue of pIC50 readings, one per entry.
- Assay target: Sonic hedgehog protein (Mus musculus)
- Sequence (Q62226 25-198 limits assumed): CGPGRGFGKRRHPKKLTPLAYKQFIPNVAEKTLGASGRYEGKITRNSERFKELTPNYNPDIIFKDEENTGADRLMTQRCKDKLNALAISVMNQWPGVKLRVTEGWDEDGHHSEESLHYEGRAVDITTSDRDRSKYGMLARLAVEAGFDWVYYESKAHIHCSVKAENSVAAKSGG
- Assay procedure: Inhibition of recombinant mouse Shh expressed in […] assessed as inhibition of Gli1 expression after 48 hrs by luciferase reporter gene assay
Lab note: report pIC50 as minus log10 of the concentration in molar units, number only.

{"Sample smiles": "COc1c(C(=O)NC2CCN(CCO)CC2)n(C)c2c1c(=O)n(CCc1ccccc1)c1ccccc21", "pIC50": 6.82}
{"Sample smiles": "COc1c(C(=O)NC2CCN(C(=O)CO)CC2)n(C)c2c1c(=O)n(CC(=O)c1ccccc1)c1ccccc21", "pIC50": 8.34}
{"Sample smiles": "COc1c(C(=O)NC2CCN(CCO)CC2)n(C)c2c1c(=O)n(CC(=O)c1ccccc1)c1ccccc21", "pIC50": 8.18}
{"Sample smiles": "COc1c(C(=O)NCCN2CCOCC2)n(C)c2c1c(=O)n(CC(=O)c1ccccc1)c1ccccc21", "pIC50": 7.66}
{"Sample smiles": "COc1c(C(=O)NC2CCNCC2)n(C)c2c1c(=O)n(CC(=O)c1ccccc1)c1ccccc21", "pIC50": 7.68}
{"Sample smiles": "COc1c(C(=O)NCCN2CCCC2)n(C)c2c1c(=O)n(CC(=O)c1ccccc1)c1ccccc21", "pIC50": 8.54}
{"Sample smiles": "COc1c(C(=O)NCCN2CCCC2)sc2c1c(=O)n(CC(=O)c1ccccc1)c1ccccc21", "pIC50": 8.29}
{"Sample smiles": "COc1c(C(=O)NCCN2CCCCC2)n(C)c2c1c(=O)n(CC(=O)c1ccccc1)c1ccccc21", "pIC50": 8.02}

What pIC50 value was documented for this molecule, CCOc1c(C(=O)NCCN2CCCC2)n(C)c2c1c(=O)n(CC(=O)c1ccccc1)c1ccccc21 ?
8.15
